Several publications report pKi on Prostaglandin E2 receptor EP4 subtype (Homo sapiens); those values are gathered here.
Bear in mind: pKi is minus log10 of a mol/L concentration; give just that figure.

{"compound": "O=C(O)CCCCCNC(=O)[C@H](CCCNC(=O)OCc1ccccc1)NC(=O)c1cc2ccccc2o1", "measurement.target": "Prostaglandin E2 receptor EP4 subtype (Homo sapiens)", "pKi": 9.04}
{"compound": "Cc1cc(C(=O)O)cc(C)c1NC(=O)c1cc(-c2ccccc2)nc2ccccc12", "measurement.target": "Prostaglandin E2 receptor EP4 subtype (Homo sapiens)", "pKi": 7.41}
{"compound": "C/C(=C/C=C/[C@H]1CCC(=O)N1CCc1ccc(C(=O)O)cc1)CC1CCCC1", "measurement.target": "Prostaglandin E2 receptor EP4 subtype (Homo sapiens)", "pKi": 6.93}
{"compound": "CCCC[C@H](O)/C=C/[C@H]1CCC(=O)N1CCc1ccc(C(=O)O)cc1", "measurement.target": "Prostaglandin E2 receptor EP4 subtype (Homo sapiens)", "pKi": 9.00}
{"compound": "C[C@H](NC(=O)c1cccc2c1N(Cc1ccc(C(F)(F)F)cc1)CC2)c1ccc(-c2nnn[nH]2)cc1", "measurement.target": "Prostaglandin E2 receptor EP4 subtype (Homo sapiens)", "pKi": 9.00}

What does the record list as pKi for `Cc1cc(O)ccc1-c1cccc([C@H](O)CC[C@H]2CCC(=O)N2CCCCCCC(=O)O)c1` ?
8.09

Also `C[C@H](NC(=O)c1cccc2c1N(Cc1cccc(C(F)(F)F)c1)CC2)c1ccc(C(=O)O)cc1` , if possible.
9.40

----------
Assembled from different publications: Ki for Prostaglandin E2 receptor EP4 subtype (Homo sapiens).

Answered examples (2):
{"molecule": "CCCC1(C(O)CCCN2CCC(=O)N2CCc2ccc(C(=O)O)cc2)CCC1 (stereo not drawn)", "measurement.target": "Prostaglandin E2 receptor EP4 subtype (Homo sapiens)", "value": "> 50 µM"}
{"molecule": "Cc1ccc(N(CCN2CCC(OCC(=O)O)CC2)C(=O)c2ccccc2)cc1", "measurement.target": "Prostaglandin E2 receptor EP4 subtype (Homo sapiens)", "value": "> 50 µM"}

What does the data say about its Ki? Entry: `CCC(CC)c1nnc(NC(=O)c2ccc3c(c2)OCCO3)s1`
> 25 µM

----------
Multi-source literature compilation: Ki on Prostaglandin E2 receptor EP4 subtype (Homo sapiens, UniProt P35408).
Sequence (P35408 whole entry): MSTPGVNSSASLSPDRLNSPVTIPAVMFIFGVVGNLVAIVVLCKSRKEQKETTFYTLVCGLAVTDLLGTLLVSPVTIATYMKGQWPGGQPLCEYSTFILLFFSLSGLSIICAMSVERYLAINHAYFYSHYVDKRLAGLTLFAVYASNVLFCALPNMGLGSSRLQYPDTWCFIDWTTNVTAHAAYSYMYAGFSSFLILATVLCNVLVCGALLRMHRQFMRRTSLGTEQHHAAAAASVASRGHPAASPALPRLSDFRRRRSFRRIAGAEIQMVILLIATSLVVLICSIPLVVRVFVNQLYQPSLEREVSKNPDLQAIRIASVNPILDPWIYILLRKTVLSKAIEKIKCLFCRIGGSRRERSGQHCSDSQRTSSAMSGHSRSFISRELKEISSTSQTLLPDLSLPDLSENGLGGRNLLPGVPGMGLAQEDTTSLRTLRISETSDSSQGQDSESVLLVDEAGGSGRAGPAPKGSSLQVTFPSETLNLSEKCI
Output spec: scalar in nM, unitless text.

Below, each entry is followed by its recorded Ki result.
{"molecule": "Cc1cccc(CCCc2ccccc2CCC(=O)O)c1OCc1ccccc1", "Ki [nM]": 440}
{"molecule": "CCCOc1c2c(c(OCCC)c3ccccc13)C(=O)N(c1ccc(CC(=O)O)cc1)C2", "Ki [nM]": 631}
{"molecule": "O=C(Nc1ccccc1)NS(=O)(=O)c1ccccc1-c1ccc(CN2C(=O)c3ccccc3CCc3ccccc32)cc1", "Ki [nM]": 19000}
{"molecule": "O=C(O)c1ccc(CCN2C(=O)CCN2CC[C@@H](O)Cc2cccc(I)c2)cc1", "Ki [nM]": 26}
{"molecule": "CCCCC1([C@@H](O)/C=C/[C@H]2CCC(=O)N2CCc2ccc(C(=O)O)cc2)CCC1", "Ki [nM]": 2}
{"molecule": "O=C(O)CCCCCCN1C(=O)CC[C@@H]1/C=C/C(O)c1cccc(-c2ccccc2Cl)c1 (stereo partly drawn)", "Ki [nM]": 6.2}
{"molecule": "COc1cc(/C=C\\Cc2ccccc2/C=C/C(=O)O)ccc1OCc1ccccc1.COc1cc(C/C=C/c2ccccc2/C=C/C(=O)O)ccc1OCc1ccccc1", "Ki [nM]": 610}
{"molecule": "O=C(O)c1cccc(C[C@@H]2CCCC=C2c2nc(-c3ccccc3)c(-c3ccccc3)o2)c1", "Ki [nM]": 5.5}

Look at this molecule and give its reported Ki. `O=C(O)c1ccc(CCN2C(=O)CCN2CC[C@@H](O)Cc2ccccc2)cc1`
134

`Cc1cccc(OCCCOc2ccc(-c3ccccc3COC(=O)NS(=O)(=O)c3cccs3)cc2)c1` ?
730

Now consider `CC(C)(Cc1ccccc1)C(=O)NS(=O)(=O)c1ccccc1-c1ccc(CN2C(=O)c3ccccc3CCc3ccccc32)cc1` .
2400

----------
Literature compilation of pKi measurements on Prostaglandin E2 receptor EP4 subtype (Homo sapiens).
pKi: −log10 of the molar value.

Example cases with answers are listed next.
{"compound": "O=C(O)c1csc(-n2nc(-c3ccccc3)c3ccc(C(F)(F)F)nc32)n1", "value": "< 5.57"}
{"compound": "O=C(O)/C=C/c1ccccc1-c1ccc(Cl)c(Cl)c1", "value": "< 5.00"}
{"compound": "O=C(NCCCc1ccccc1)NS(=O)(=O)c1ccccc1-c1ccc(CN2C(=O)c3ccccc3CCc3ccccc32)cc1", "value": "< 4.00"}

Need pKi, item `O=C(NCCc1ccccc1)NS(=O)(=O)c1ccccc1-c1ccc(CN2C(=O)c3ccccc3CCc3ccccc32)cc1`
< 4.00

Cool, now `CC(=O)c1cc(S(C)(=O)=O)cc2c3c(n(Cc4ccc(Cl)cc4)c12)[C@@H](CC(=O)O)CC3`
< 4.70

Same question for `O=C1c2ccccc2CCc2ccccc2N1Cc1ccc(-c2ccccc2S(=O)(=O)N(Cc2ccccc2)C(=O)NCCc2ccccc2)cc1` please.
< 4.00

Now the compound CC(O)c1cc(S(C)(=O)=O)cc2c3c(n(Cc4ccc(Cl)cc4)c12)[C@@H](CC(=O)O)CC3 (some centres not stated)
< 5.54
